These measurements were taken from ChEMBL document CHEMBL1146073.

assay: Stability in human assessed as liver microsomal turnover; format: ADME, Microsome; details: liver microsomes, read-out: Stability
experimental-endpoint: metabolised

Use the examples below as a reference point.
Fc1cnc(-c2cc(-c3cnnc(-c4ccncc4F)c3)ccc2F)c(F)c1
< 5%
Fc1cnc(-c2cc(-c3cnnc(-c4ncccc4F)c3)ccc2F)c(F)c1
< 5%

# context switch: different molecule, same metabolised
Incoming: Name the reported metabolised value associated with the molecule "Fc1ccc(-c2cc(-c3ccc(F)c(-c4ncc(F)cc4F)c3)cnn2)c(F)c1"
Outgoing: < 5%
